test: Solubility study of naltrexone and methylphenidate in common solvents and household items (visual examination)
Type: physicochemical
setup.conditions: 40% ethanol, aqueous with cosolvent or surfactant or cyclodextrin, thermodynamic from solid; read-out: Solubility
Structures can show the parent of a compound that is named as a salt.
Task for the reader: assign each of the following compounds its reported solubility.

Fill in the blank: the reported solubility of O=C1CC[C@@]2(O)[C@H]3Cc4ccc(O)c5c4[C@@]2(CCN3CC2CC2)[C@H]1O5 [Naltrexone HCl] is ____.
> 1000 µg/mL

Fill in the blank: the reported solubility of COC(=O)C(c1ccccc1)C1CCCCN1 (centres unmarked) [Methylphenidate HCl] is ____.
> 1000 µg/mL
